Quick list: solubility kinetic per entry.
Details: buffer; pH 7.4; 200.0 µM
Measurement kind: solubility kinetic

1) O=[N+]([O-])c1ccccc1COc1ccc(Cl)c2cccnc12: < 0.3 µg/mL
2) Clc1cccc(OCCCn2ccnc2)c1: > 35.5 µg/mL
3) O=C(COc1ccccc1)NCC(=O)NC1CCCCC1: > 43.6 µg/mL
4) CC1CN(C(=O)CSc2nc(N)cc(N)n2)CC(C)O1 (stereo not drawn): > 44.6 µg/mL
5) Cc1cccc(C(=O)O/N=C/c2ccc(Br)cc2)c1: < 0.7 µg/mL
6) C=CCNC(=O)C1CCC(=O)N1S(=O)(=O)c1ccc(C)cc1 (stereo not drawn): > 48.4 µg/mL
7) CC(=O)Oc1cccc(Nc2ncnc3ccccc23)c1: > 41.9 µg/mL
8) CCOC(=O)c1cnc(-c2ccccc2)nc1C(F)(F)F: < 0.3 µg/mL
9) O=C(c1cccc(Oc2ccccc2)c1)N1CCOCC1: > 42.5 µg/mL
10) O=c1c([N+](=O)[O-])cccn1Cc1cccc(Br)c1: > 46.4 µg/mL
11) CCC(C(=O)Nc1ccccn1)c1ccccc1 (stereo not drawn): > 36 µg/mL
12) O=C(O)CCCC(=O)Nc1ccc(Oc2ncnc3cc(Cl)ccc23)nc1: > 58 µg/mL
13) CCOC(=O)C1CCN(S(=O)(=O)c2c[nH]c(=O)[nH]c2=O)CC1: > 49.7 µg/mL
